The following compounds are listed with their measured pEC50 values.
Target: human TAAR1 (Homo sapiens)
Construct: expressed in transfected cells; host or cells: HEK 293 cells
Sequence (Q96RJ0 1-339): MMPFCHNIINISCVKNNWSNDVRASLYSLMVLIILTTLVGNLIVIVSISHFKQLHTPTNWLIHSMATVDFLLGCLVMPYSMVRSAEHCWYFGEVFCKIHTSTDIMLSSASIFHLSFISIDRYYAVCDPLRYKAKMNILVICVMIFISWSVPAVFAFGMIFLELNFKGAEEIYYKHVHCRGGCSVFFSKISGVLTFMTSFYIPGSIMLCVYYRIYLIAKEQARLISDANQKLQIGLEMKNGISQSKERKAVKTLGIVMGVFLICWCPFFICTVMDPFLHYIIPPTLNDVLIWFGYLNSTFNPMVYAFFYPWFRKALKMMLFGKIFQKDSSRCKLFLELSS
Assay: Activation potency at human TAAR1 (cAMP assay, HEK 293 cells)
Assay type: cell-based
pEC50: −log10 of the molar value.

Compound: COc1cc(OC(F)F)cc(OC)c1CCN [Ψ-2C-O-35]
Value comparator: <
pEC50: 4.52
--
Compound: COc1cc(OCCF)cc(OC)c1CC(C)N (stereo not drawn) [Ψ-MFEM]
Value comparator: =
pEC50: 5.72
--
Compound: COc1cc(OC(F)F)cc(OC)c1CC(C)N (stereo not drawn) [Ψ-DODFMO]
Value comparator: <
pEC50: 4.52
--
Compound: COc1cc(OCC(F)(F)F)cc(OC)c1CC(C)N (stereo not drawn) [Ψ-MTFEM]
Value comparator: =
pEC50: 5.96
--
Compound: CCOc1cc(OC)c(CCN)c(OC)c1 [Ψ-2C-O-2, 2,6-dimethoxy-4-ethoxyphenethylamine]
Value comparator: =
pEC50: 6.64
--
Compound: C=C(C)COc1cc(OC)c(CCN)c(OC)c1 [Ψ-2C-O-3]
Value comparator: =
pEC50: 7.00
--
Compound: COc1cc(OCCF)cc(OC)c1CCN [Ψ-2C-O-21]
Value comparator: =
pEC50: 7.10
--
Compound: COc1cc(OCC(F)(F)F)cc(OC)c1CCN [Ψ-2C-O-22]
Value comparator: =
pEC50: 7.33
--
Compound: C=CCOc1cc(OC)c(CC(C)N)c(OC)c1 (stereo not drawn) [Ψ-MALM, 4-allyloxy-2,6-dimethoxyamphetamine]
Value comparator: <
pEC50: 4.52
--
Compound: C=CCOc1cc(OC)c(CCN)c(OC)c1 [Ψ-2C-O-16, 4-allyloxy-2,6-dimethoxyphenethylamine]
Value comparator: =
pEC50: 7.47
--
Compound: COc1cc(OCc2ccccc2)cc(OC)c1CC(C)N (stereo not drawn) [Ψ-MBnM, 4-benzyloxy-2,6-dimethoxyamphetamine]
Value comparator: <
pEC50: 4.52
--
Compound: CCOc1cc(OC)c(CC(C)N)c(OC)c1 (stereo not drawn) [Ψ-MEM, 2,6-dimethoxy-4-ethoxyamphetamine]
Value comparator: =
pEC50: 5.66
--
Compound: COc1cc(OC)c(CCN)c(OC)c1 [Ψ-2C-O-1, 2,4,6-trimethoxyphenethylamine]
Value comparator: =
pEC50: 5.64
--
Compound: COc1cc(OCc2ccccc2)cc(OC)c1CCN [Ψ-2C-O-27, 4-benzyloxy-2,6-dimethoxyphenethylamine]
Value comparator: =
pEC50: 5.52
--
Compound: COc1cc(OCC(F)F)cc(OC)c1CCN [Ψ-2C-O-21.5]
Value comparator: =
pEC50: 7.39
--
Compound: C=C(C)COc1cc(OC)c(CC(C)N)c(OC)c1 (stereo not drawn) [Ψ-MMALM, 2,6-dimethoxy-4-methallyloxyamphetamine]
Value comparator: =
pEC50: 5.60
--
Compound: COc1cc(OCC(F)F)cc(OC)c1CC(C)N (stereo not drawn) [Ψ-MDFEM]
Value comparator: =
pEC50: 6.07
--
Compound: COc1cc(OC)c(CC(C)N)c(OC)c1 (stereo not drawn) [TMA-6, 2,4,6-trimethoxyamphetamine]
Value comparator: <
pEC50: 4.52

Data origin, for the record: paper PMC12675387
